Procedure text: Mouse blood levels
Condition parameters: mouse, blood, im, 20 mg/kg
Value kind: concentration at 20 min (ng/mL)
Numbers only, in ng/mL.

{"columns": ["Molecule", "Measurement unit", "Measured number"],
 "data": [
  ["C/C=C\\C1=C(C(=O)O)N2C(=O)C(NC(=O)[C@H](N)c3ccc(O)cc3)[C@H]2SC1 (some centres unmarked)", "ng/mL", 15000]
]}

Shift focus to the following entry.
Lookup: Please look up its concentration at 20 min: C/C=C\C1=C(C(=O)O)N2C(=O)C(NC(=O)[C@H](N)c3cccc(O)c3)[C@H]2SC1 (some centres unmarked)
Found: 17000
